The reported measurements were obtained from PubChem BioAssay AID1903.

- assayed system: Large T antigen (Simian virus 40) (UniProt P03070)
- Sequence (P03070 whole entry, looked up): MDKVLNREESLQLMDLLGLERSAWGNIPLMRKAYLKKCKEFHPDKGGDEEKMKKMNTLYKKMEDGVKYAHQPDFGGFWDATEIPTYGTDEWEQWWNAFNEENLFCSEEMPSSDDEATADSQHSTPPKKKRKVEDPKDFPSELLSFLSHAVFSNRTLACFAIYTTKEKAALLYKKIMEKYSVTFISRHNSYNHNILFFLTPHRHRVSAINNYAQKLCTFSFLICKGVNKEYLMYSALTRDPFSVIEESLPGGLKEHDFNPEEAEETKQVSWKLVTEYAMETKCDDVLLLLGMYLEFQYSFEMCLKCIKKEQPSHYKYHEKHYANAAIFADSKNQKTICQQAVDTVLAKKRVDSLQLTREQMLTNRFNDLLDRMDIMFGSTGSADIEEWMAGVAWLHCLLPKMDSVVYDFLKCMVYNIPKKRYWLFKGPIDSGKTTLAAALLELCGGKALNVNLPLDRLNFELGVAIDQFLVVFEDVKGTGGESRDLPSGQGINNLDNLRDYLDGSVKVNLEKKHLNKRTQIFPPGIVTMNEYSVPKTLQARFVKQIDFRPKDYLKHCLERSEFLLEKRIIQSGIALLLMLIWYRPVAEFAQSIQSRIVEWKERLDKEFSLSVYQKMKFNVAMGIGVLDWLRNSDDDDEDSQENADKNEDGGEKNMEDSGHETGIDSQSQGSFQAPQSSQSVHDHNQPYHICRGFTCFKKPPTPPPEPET
- procedure summary: SV40 large T antigen inhibitors, biochemical (AID 1903)
- details: SV40 large T antigen ATPase/helicase inhibition assay; at 20 µM; active compounds read high
The campaign covered roughly 310,000 compounds. About 1,200 (0.39%) were called active. Not all results are given here. Potency and affinity values are given separately.
measured endpoint: inhibition (%)
# value in %; strip the unit string

As a guide, the following entries are already answered.
molecule	measured endpoint	reading
CCO[C@H]1OC(C(=O)NCc2nc3ccccc3[nH]2)=C[C@@H](c2ccccc2)[C@@H]1CCCO	inhibition	1.96
Fc1ccc(CNc2ccc(CNc3ncn[nH]3)cc2)cc1	inhibition	19.6
O=C(c1ccccc1F)N1CCN(C2CCC(c3ccccc3)CC2)CC1 (centres undefined)	inhibition	18.6
COc1ccc(/C=C/C(=O)c2ccc([N+](=O)[O-])o2)cc1	inhibition	2.57
Oc1ccc(NCc2cccc(OCc3ccc(F)cc3)c2)cc1	inhibition	29.3
C/C(CC(=O)Nc1ccc(N(C)C)cc1)=N\NC(=O)c1ccc([N+](=O)[O-])cc1	inhibition	22.9

[in] What value of inhibition has been reported for the following molecule? C/C(CC(=O)Nc1ccc(N(C)C)cc1)=N\NC(=O)c1ccc(Cl)cc1
[out] 21.9

[in] Item under review: COc1cc(NC(=O)CN2CCN(S(=O)(=O)c3ccc(C(C)C)cc3)CC2)cc(OC)c1 . Reported inhibition?
[out] 4.71

[in] Fill in the blank: the reported inhibition of CC(C)(C)C(=O)CN1CCN(S(=O)(=O)c2ccc(F)cc2)CC1 is ____.
[out] 1.15
